target: Protein translocase subunit SecA (Escherichia coli (strain K12)) (UniProt P10408); test: Assay to Identify E. coli SecA ATPase Inhibitors; assay type: functional; parameters: scale not given: direction of the effect not stated beside the values; details: 30 µM
Sequence (P10408 whole entry): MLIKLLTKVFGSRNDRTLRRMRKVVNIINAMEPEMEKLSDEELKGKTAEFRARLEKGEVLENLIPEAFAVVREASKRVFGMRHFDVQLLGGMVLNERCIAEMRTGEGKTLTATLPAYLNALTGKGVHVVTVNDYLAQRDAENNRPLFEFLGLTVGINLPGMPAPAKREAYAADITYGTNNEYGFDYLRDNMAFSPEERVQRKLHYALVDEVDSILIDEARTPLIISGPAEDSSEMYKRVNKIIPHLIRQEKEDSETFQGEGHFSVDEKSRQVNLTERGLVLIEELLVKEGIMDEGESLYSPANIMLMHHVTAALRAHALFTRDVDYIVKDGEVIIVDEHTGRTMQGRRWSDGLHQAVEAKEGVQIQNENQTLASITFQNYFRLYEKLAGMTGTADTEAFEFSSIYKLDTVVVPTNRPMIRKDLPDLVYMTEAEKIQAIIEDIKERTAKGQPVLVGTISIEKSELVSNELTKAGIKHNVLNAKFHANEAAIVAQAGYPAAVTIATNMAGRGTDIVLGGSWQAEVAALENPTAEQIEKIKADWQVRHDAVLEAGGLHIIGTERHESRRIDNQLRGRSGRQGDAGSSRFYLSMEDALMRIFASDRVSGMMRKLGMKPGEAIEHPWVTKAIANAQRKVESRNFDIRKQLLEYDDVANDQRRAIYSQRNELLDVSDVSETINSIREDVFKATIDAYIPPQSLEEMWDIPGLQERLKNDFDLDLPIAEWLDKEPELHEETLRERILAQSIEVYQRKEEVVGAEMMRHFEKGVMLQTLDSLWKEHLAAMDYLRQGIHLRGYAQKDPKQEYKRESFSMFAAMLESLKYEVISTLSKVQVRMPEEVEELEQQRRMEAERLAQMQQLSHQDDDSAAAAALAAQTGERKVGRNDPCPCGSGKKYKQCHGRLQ
Potency and affinity values are given separately.
I'd appreciate it if you could supply Percent Effect values for the items below.
Could you give me the number in %? Just the number is fine.

INPUT: Form: Entry = COc1ccc(CN2CCC3(CC(=O)N(c4cncnc4)C3)C2)cc1 (stereo unspecified) | System = Protein translocase subunit SecA (Escherichia coli (strain K12)) (UniProt P10408) | Percent Effect = ____
OUTPUT: -1.48

INPUT: Find Percent Effect (Protein translocase subunit SecA (Escherichia coli (strain K12)) (UniProt P10408)) for the entry COCC(C)(O)CNC(=O)COc1ccccc1OC (stereo unspecified)
OUTPUT: -1.78

INPUT: Notebook entry, Protein translocase subunit SecA (Escherichia coli (strain K12)) (UniProt P10408) assay: Percent Effect of O=C(Cn1cc(I)cn1)Nc1cccnc1 = ?
OUTPUT: -7.8

INPUT: What value of Percent Effect on Protein translocase subunit SecA (Escherichia coli (strain K12)) (UniProt P10408) does O=C(c1cnccn1)N1CCN(Cc2ccncc2)c2ncccc2C1 have?
OUTPUT: -1.27

INPUT: Request: Percent Effect, test system Protein translocase subunit SecA (Escherichia coli (strain K12)) (UniProt P10408), entry CC(=O)NCCNC(=O)CN1CCN(Cc2nccn2C)C(C)C1 (stereo unspecified)
OUTPUT: -6.92

INPUT: What is its Percent Effect for Protein translocase subunit SecA (Escherichia coli (strain K12)) (UniProt P10408)? Entry: Cc1c(C)n(Cc2ccccn2)c2nc3c(c(N)c12)CCCC3
OUTPUT: -3.58

* * *

biological target: Arginase-2, mitochondrial (Homo sapiens); assay: in vitro enzyme assay to detect the production of urea directly proportional to the activity of Arginase II; format: functional; parameters: scale not given: in the data most compounds retested in dose-response had high values; conditions: 33.3 µM
Field: Percent Effect. Provide a value for each of the compounds that follow.

INPUT: Lab note: need Percent Effect for CCC1CN(c2nnc(C)c(C)c2C#N)CCO1 (stereo unspecified) on Arginase-2, mitochondrial (Homo sapiens), anyone have it?
OUTPUT: 1.15%

INPUT: What value of Percent Effect on Arginase-2, mitochondrial (Homo sapiens) does O=C(NCC1CC1)[C@H]1C[C@H]2OCC[C@H]2N(Cc2ccoc2)C1 have?
OUTPUT: 6.69%

INPUT: Requested read-out Percent Effect, target or system Arginase-2, mitochondrial (Homo sapiens), entry CC(C)c1csc(C2CCCN(C(=O)c3ccc(=O)n(C)n3)C2)n1 (stereo unspecified)
OUTPUT: 1.74%

INPUT: Return Percent Effect measured with Arginase-2, mitochondrial (Homo sapiens) given this compound: Cn1nc(COc2cccnc2)c2c1CCN(c1cnccn1)C2
OUTPUT: 14.3%

INPUT: Kindly state the measured Percent Effect obtained for Cc1csc(N2CCN(C(=O)Cc3ccc(C)s3)CC2)n1 with Arginase-2, mitochondrial (Homo sapiens).
OUTPUT: -5.61%

INPUT: Param readout= Percent Effect; system= Arginase-2, mitochondrial (Homo sapiens); entry= CN(Cc1ccco1)C[C@H]1OC[C@@H]2CCN(Cc3cccs3)C[C@@H]21 ; returns value.
OUTPUT: -50.7%
